Organism: Homo sapiens
Assay: Protein binding to human plasma
Conditions: read-out: PPB
Reported metric: fraction unbound

I = CC1(C)[C@H]2CC=C(CN3CCC(NC(=O)Nc4cc(C(F)(F)F)cc(C(F)(F)F)c4)CC3)[C@@H]1C2
II = CC(C)(C)C(=O)N1CCC(CN2CCC(NC(=O)Nc3cc(C(F)(F)F)cc(C(F)(F)F)c3)CC2)CC1
Q: Of I and II , which one carries the higher reported fraction unbound? Let me know the label of the one you choose.
A: II
(II: 0.01, I: 0.001)

---

Biological target: C-X-C chemokine receptor type 3 (Mus musculus, UniProt O88410)
Sequence (O88410 whole entry): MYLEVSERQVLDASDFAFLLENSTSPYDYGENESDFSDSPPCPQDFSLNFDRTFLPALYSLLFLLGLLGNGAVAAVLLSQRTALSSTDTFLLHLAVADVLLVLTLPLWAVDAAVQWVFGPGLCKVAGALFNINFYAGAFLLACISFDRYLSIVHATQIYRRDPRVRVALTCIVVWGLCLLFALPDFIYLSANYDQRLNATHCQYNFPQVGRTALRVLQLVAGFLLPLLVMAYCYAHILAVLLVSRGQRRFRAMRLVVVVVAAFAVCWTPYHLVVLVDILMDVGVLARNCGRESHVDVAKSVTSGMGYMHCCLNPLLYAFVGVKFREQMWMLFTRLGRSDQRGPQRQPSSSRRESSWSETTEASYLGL
Assay: Antagonist activity at mouse CXCR3
pKi: −log10 of the molar value.
Reported metric: pKi

CC(C)C(=O)N1C2C=C(CN3CCC(NC(=O)Nc4cc(F)cc(C(F)(F)F)c4)CC3)CC1CC2 (centres undefined) ... 6.74

1 = CC(=O)N1C2C=C(CN3CCC(NC(=O)Nc4cc(F)cc(OC(C)C)c4)CC3)CC1CCC2 (centres undefined)
2 = CCOC(=O)N1C2C=C(CN3CCC(NC(=O)Nc4cc(F)cc(C(F)(F)F)c4)CC3)CC1CC2 (centres undefined)
3 = CC(=O)N1C2C=C(CN3CCC(NC(=O)Nc4cc(F)cc(C(F)(F)F)c4)CC3)CC1CC2 (centres undefined)
Q: # ascending order, key=pKi Could you list the labels in the order requested?
A: 2, 3, 1
(2: 6.02, 3: 6.92, 1: 8.22)

---

Molecular target: Muscarinic acetylcholine receptor M1 (Homo sapiens)
Sequence (P11229 whole entry): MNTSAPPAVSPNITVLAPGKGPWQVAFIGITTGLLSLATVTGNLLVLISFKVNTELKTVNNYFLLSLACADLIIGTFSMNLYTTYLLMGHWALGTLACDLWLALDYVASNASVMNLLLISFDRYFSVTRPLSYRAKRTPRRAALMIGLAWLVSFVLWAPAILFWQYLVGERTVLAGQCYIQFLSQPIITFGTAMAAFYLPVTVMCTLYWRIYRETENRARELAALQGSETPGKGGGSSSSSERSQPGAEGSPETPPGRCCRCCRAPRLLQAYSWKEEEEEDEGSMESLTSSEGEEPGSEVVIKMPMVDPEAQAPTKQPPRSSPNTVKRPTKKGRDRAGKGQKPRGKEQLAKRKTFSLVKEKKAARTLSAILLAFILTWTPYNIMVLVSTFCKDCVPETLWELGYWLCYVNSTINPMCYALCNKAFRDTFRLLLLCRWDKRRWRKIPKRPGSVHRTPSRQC
Reported metric: Ki (nM)
Kindly answer with a numeric value in nM, unit omitted.

Q: Look at this compound and give its reported Ki. CC(=O)N1C2C=C(CN3C4CCC3CC(NC(=O)Nc3cc(F)cc(C(F)(F)F)c3)C4)CC1CCC2 (stereo unspecified)
A: 230

---

Molecular target: UniProtKB P49682
Sequence (P49682 whole entry): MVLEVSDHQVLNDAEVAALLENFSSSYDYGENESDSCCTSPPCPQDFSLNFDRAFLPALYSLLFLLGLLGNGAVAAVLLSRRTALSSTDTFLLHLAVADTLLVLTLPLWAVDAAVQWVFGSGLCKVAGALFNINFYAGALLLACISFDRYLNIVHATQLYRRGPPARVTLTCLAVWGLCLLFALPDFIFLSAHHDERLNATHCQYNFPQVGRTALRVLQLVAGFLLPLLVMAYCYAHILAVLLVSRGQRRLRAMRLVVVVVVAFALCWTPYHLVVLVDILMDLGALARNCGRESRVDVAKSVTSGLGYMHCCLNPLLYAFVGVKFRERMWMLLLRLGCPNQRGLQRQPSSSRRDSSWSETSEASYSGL
Test: Antagonist activity at human CXCR3 by [35S]GTP-gamma-S binding assay
Reported metric: Ki (nM)

1 = CC(=O)N1C2CCC1CC(CN1CCC(NC(=O)Nc3cc(F)cc(C(F)(F)F)c3)CC1)C2 (mixture of isomers)
2 = CC(=O)N1C2C=C(CN3CCC(NC(=O)Nc4cccc(OC(C)C)c4)CC3)CC1CCC2 (stereo unspecified)
Q: Kindly identify the item with the lower Ki figure among these two: 1 and 2 Label of pick, please.
A: 2

---

Target: Muscarinic acetylcholine receptor M3 (Homo sapiens)
Sequence (P20309 whole entry): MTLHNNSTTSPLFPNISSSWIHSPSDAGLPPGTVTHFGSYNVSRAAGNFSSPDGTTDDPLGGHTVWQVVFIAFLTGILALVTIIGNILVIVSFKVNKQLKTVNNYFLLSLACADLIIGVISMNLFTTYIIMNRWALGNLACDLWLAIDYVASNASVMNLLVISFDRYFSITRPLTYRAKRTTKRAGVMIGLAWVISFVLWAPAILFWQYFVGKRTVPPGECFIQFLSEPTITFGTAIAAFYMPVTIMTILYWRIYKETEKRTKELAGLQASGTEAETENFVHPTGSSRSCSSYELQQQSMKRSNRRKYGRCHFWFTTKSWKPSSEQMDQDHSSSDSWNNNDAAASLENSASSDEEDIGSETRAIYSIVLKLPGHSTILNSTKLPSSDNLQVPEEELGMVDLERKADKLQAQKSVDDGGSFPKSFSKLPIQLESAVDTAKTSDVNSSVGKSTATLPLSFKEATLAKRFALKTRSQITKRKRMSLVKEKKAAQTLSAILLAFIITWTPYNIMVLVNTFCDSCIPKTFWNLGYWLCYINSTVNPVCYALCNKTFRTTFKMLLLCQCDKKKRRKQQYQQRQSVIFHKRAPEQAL
Reported metric: Ki (nM)
Just the number please, in nM, no unit attached.

Q: Returns the measured Ki for the input molecule. Input: CC(=O)N1C2C=C(CN3C4CCC3CC(NC(=O)Nc3cc(F)cc(C(F)(F)F)c3)C4)CC1CCC2 (stereo unspecified)
A: 1200

All figures here come from ChEMBL document CHEMBL1140788.
